tested on: generalized trembling caused by an interperitoneal injection (200 mg/kg) of dl-5-hydroxytryptophane; test: Test A: potentiation in mice of generalized trembling caused by dl-5-hydroxytryptophane; format: in vivo; settings: Mus musculus, po, dl-5-hydroxytryptophane 200 mg/kg intraperitoneal, read-out: Test A ED 50
// reported ED50 per item

{"compound": "O=C1OC(CO)CN1c1ccc(OCc2ccc(Cl)c(Cl)c2)cc1 (stereo not drawn) [770 268]", "ED50, mg/kg": 7}
{"compound": "CC(=O)Nc1ccc(COc2ccc(N3CC(CO)OC3=O)cc2)cc1 (stereo not drawn) [770 569]", "ED50, mg/kg": 5}
{"compound": "O=C1OC(CO)CN1c1ccc(OCc2cccc([N+](=O)[O-])c2)cc1 (stereo not drawn) [770 234]", "ED50, mg/kg": 1.5}
{"compound": "O=C1OC(CO)CN1c1ccc(OCC2CC2)cc1 (stereo not drawn) [770 388]", "ED50, mg/kg": 9}
{"compound": "O=C1OC(CO)CN1c1ccc(OCC2CCOCC2)cc1 (stereo not drawn) [771 301]", "ED50, mg/kg": 1.9}
{"compound": "O=C1OC(CO)CN1c1ccc(OCc2cccs2)cc1 (stereo not drawn) [770 673]", "ED50, mg/kg": 16}
{"compound": "O=C1OC(CO)CN1c1ccc(OCc2ccc(Cl)cc2Cl)cc1 (stereo not drawn) [770 354]", "ED50, mg/kg": 25}
{"compound": "N#Cc1cccc(COc2ccc(N3CC(CO)OC3=O)cc2)c1 (stereo not drawn) [770 222]", "ED50, mg/kg": 2.8}
{"compound": "O=C1OC(CO)CN1c1ccc(OCc2cccc(Br)c2)cc1 (stereo not drawn) [760 557]", "ED50, mg/kg": 7.3}
{"compound": "CC(C)CCOc1ccc(N2CC(CO)OC2=O)cc1 (stereo not drawn) [771 082]", "ED50, mg/kg": 1.3}
{"compound": "O=C1OC(CO)CN1c1ccc(OCc2cccc(I)c2)cc1 (stereo not drawn) [771 321]", "ED50, mg/kg": 25}
{"compound": "O=C1OC(CO)CN1c1ccc(OCc2cc(Cl)cc([N+](=O)[O-])c2)cc1 (stereo not drawn) [771 199]", "ED50, mg/kg": 1.1}
{"compound": "O=C1OC(CO)CN1c1ccc(OCc2ccoc2)cc1 (stereo not drawn) [770 979]", "ED50, mg/kg": 14}
{"compound": "O=C1OC(CO)CN1c1ccc(OCc2ccc(F)c([N+](=O)[O-])c2)cc1 (stereo not drawn) [770 955]", "ED50, mg/kg": 13}
{"compound": "Nc1cccc(COc2ccc(N3CC(CO)OC3=O)cc2)c1 (stereo not drawn) [771 240]", "ED50, mg/kg": 35}
{"compound": "CCC(=O)Nc1ccc(COc2ccc(N3CC(CO)OC3=O)cc2)cc1 (stereo not drawn) [780 443]", "ED50, mg/kg": 3.7}
{"compound": "O=C1OC(CO)CN1c1ccc(OCC2=CCCC2)cc1 (stereo not drawn) [770 466]", "ED50, mg/kg": 9.6}
{"compound": "O=C1OC(CO)CN1c1ccc(COc2ccccc2)cc1 (stereo not drawn) [770 696]", "ED50, mg/kg": 15}
{"compound": "Cc1cccc(N2CC(CO)OC2=O)c1 (stereo not drawn) [TOLOXATONE, reference compound]", "ED50, mg/kg": 60}
{"compound": "O=C1OC(CO)CN1c1ccc(OCC2CCCC2)cc1 (stereo not drawn) [770 467]", "ED50, mg/kg": 2.8}
{"compound": "N#CCCOc1ccc(N2CC(CO)OC2=O)cc1 (stereo not drawn) [770 131]", "ED50, mg/kg": 2.5}
{"compound": "COC(=O)Nc1ccc(COc2ccc(N3CC(CO)OC3=O)cc2)cc1 (stereo not drawn) [780 182]", "ED50, mg/kg": 40}
{"compound": "O=C1OC(CO)CN1c1ccc(OCC2SCCS2)cc1 (stereo not drawn) [780 080]", "ED50, mg/kg": 50}
{"compound": "N#Cc1cc(COc2ccc(N3CC(CO)OC3=O)cc2)cc([N+](=O)[O-])c1 (stereo not drawn) [771 125]", "ED50, mg/kg": 3.12}
{"compound": "N#Cc1cc(COc2ccc(N3CC(CO)OC3=O)cc2)ccc1F (stereo not drawn) [770 789]", "ED50, mg/kg": 3}
{"compound": "O=C1OC(CO)CN1c1ccc(OCC2=CCC=CC2)cc1 (stereo not drawn) [770 984]", "ED50, mg/kg": 10}
{"compound": "N#CCOc1cccc(N2CC(CO)OC2=O)c1 (stereo not drawn) [770 231]", "ED50, mg/kg": 40}
{"compound": "O=C1OC(CO)CN1c1ccc(OCc2ccc([N+](=O)[O-])c(Cl)c2)cc1 (stereo not drawn) [770 790]", "ED50, mg/kg": 50}
{"compound": "O=C1OC(CO)CN1c1ccc(OCC2OCCS2)cc1 (stereo not drawn) [780 112]", "ED50, mg/kg": 5}
{"compound": "O=C1OC(CO)CN1c1ccc(CCc2cccc(Cl)c2)cc1 (stereo not drawn) [771 181]", "ED50, mg/kg": 6.25}
